target: His-tagged IDO1 human recombinant protein (71182, BPS Biosciences) (human) (UniProt P14902); test: ELISA: biotin-PEG3 macrocycle on NeutrAvidin plate, His-tagged human IDO1 titrated, AP-conjugated anti-6XHis antibody, fluorescence
Sequence (P14902 2-403 limits assumed): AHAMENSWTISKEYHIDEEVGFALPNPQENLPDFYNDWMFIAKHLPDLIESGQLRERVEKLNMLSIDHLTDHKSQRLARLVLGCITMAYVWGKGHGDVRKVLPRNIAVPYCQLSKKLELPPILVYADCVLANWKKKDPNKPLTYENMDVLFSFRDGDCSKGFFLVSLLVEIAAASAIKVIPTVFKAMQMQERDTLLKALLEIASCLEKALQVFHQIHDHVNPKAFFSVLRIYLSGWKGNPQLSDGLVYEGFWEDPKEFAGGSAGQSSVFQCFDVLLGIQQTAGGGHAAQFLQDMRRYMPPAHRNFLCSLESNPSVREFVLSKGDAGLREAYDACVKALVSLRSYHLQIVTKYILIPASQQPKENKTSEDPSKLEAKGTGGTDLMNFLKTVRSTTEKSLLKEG
pEC50: −log10 of the molar value.
measure: pEC50

Use these answered entries as a reference point.
binder	pEC50
WARAY (all D-amino acids; ring closed by triazole between flanking N-terminal Pra and C-terminal Az4; N-terminal biotin-PEG3) [Biotin-PEG3-Cy(waray)]	7.01
WYRAY (all D-amino acids; ring closed by triazole between flanking N-terminal Pra and C-terminal Az4; N-terminal biotin-PEG3) [biotin-PEG3-Cy(wyray)]	7.60
AYRAY (all D-amino acids; ring closed by triazole between flanking N-terminal Pra and C-terminal Az4; N-terminal biotin-PEG3) [Biotin-PEG3-Cy(ayray)]	6.99
WYRY (all D-amino acids; ring closed by triazole between flanking N-terminal Pra and C-terminal Az4; N-terminal biotin-PEG3) [Biotin-PEG3-Cy(wyry)]	7.74
WRAY (all D-amino acids; ring closed by triazole between flanking N-terminal Pra and C-terminal Az4; N-terminal biotin-PEG3) [Biotin-PEG3-Cy(wray)]	7.10

A = WYAAY (all D-amino acids; ring closed by triazole between flanking N-terminal Pra and C-terminal Az4; N-terminal biotin-PEG3) [Biotin-PEG3-Cy(wyaay)]
B = YRAY (all D-amino acids; ring closed by triazole between flanking N-terminal Pra and C-terminal Az4; N-terminal biotin-PEG3) [Biotin-PEG3-Cy(yray)]
Input line: // pick larger pEC50 from pair: A vs B Identify your selection by its label.
Output line: A
